Values were extracted from a melting point compilation (Tetko et al.).

measure: melting point (°C)
Number only, in °C; omit the unit.

COc1ccc(C(=O)N(NC(=O)c2ccccc2)C(C)(C)C)cc1OC | 206
CCCCCCCCCCCCCCCCCC(=O)OCCCCC | 30
O=C(Nc1ccc(F)cc1F)c1cccnc1Oc1cccc(C(F)(F)F)c1 | 160

[ask] Could you tell me which melting point is on file for C/C(=C\C=C\c1ccccc1)C(=O)O ?
[reply] 159

[ask] Could you tell me which melting point is on file for BrC(Br)c1ccccc1C(Br)Br ?
[reply] 116

[ask] Could you tell me which melting point is on file for Clc1ccccc1C=C1c2ccccc2-c2ccccc21 ?
[reply] 69.5

[ask] Could you tell me which melting point is on file for O=S(=O)(Cl)Cc1ccc(Cl)cc1 ?
[reply] 95

[ask] Could you tell me which melting point is on file for CC12CCC3C(CCC4CCCCC43C)C1CCC2O (centres undefined) ?
[reply] 166

[ask] Could you tell me which melting point is on file for Nc1cc(-c2ccccc2)ccc1O ?
[reply] 200
